Listed below: %R_avg values for each entry.
# condition-set: PAMPA, 10 µM, pH 7.4
Positions of bridges follow the written chain, without caps; N, C: chain ends. Non-standard residues stand in square brackets, D forms with d. Residues, ends and D or L forms follow the SMILES beside them. Cha = N[C@@H](CC1CCCCC1)C(=O)O; NMeNva = CCC[C@H](NC)C(=O)O; NMeC = CN[C@@H](CS)C(=O)O; NMeA = CN[C@@H](C)C(=O)O; Nva = CCC[C@H](N)C(=O)O; Abu = CC[C@H](N)C(=O)O; NPrGly = CCCNCC(=O)O; NEtG = CCNCC(=O)O
Provide only the numeric value, understood in %.

molecule: CCC[C@@H]1NC(=O)[C@H](C)N(C)C(=O)[C@H](CC(C)C)NC(=O)CSC[C@@H](C(=O)OCC)N(C)C(=O)[C@H](CC(C)C)NC(=O)[C@H](C)N(C)C(=O)[C@H](CC)NC(=O)CN(CC)C(=O)[C@H]2CCCN2C1=O [LA01] ({CH2CO}-L[NMeA][Nva][dP][NEtG][Abu][NMeA]L[NMeC]-OEt; thioether N-9)
units-text: %
%R_avg: 33.1
//
molecule: CCC[C@@H]1NC(=O)CN(CC)C(=O)[C@H](CC(C)C)NC(=O)CSC[C@@H](C(=O)OCC)N(C)C(=O)[C@H](CC(C)C)NC(=O)[C@H](C)N(C)C(=O)[C@H](CC(C)C)NC(=O)[C@H](C)N(C)C(=O)[C@H]2CCCN2C1=O [LB05] ({CH2CO}-L[NEtG][Nva][dP][NMeA]L[NMeA]L[NMeC]-OEt; thioether N-9)
units-text: %
%R_avg: 50.3
//
molecule: CCC[C@@H]1NC(=O)[C@H](C)N(C)C(=O)[C@H](CC(C)C)NC(=O)CSC[C@@H](C(=O)OCC)N(C)C(=O)[C@H](CC(C)C)NC(=O)[C@H](C)N(C)C(=O)[C@H](CC2CCCCC2)NC(=O)[C@H](CCC)N(C)C(=O)[C@H]2CCCN2C1=O [LC11] ({CH2CO}-L[NMeA][Nva][dP][NMeNva][Cha][NMeA]L[NMeC]-OEt; thioether N-9)
units-text: %
%R_avg: 7.4

If you can, please state the reported %R_avg value of CCC[C@@H]1NC(=O)[C@H](C)N(C)C(=O)[C@H](CC(C)C)NC(=O)CSC[C@@H](C(=O)OCC)N(C)C(=O)[C@H](CC(C)C)NC(=O)[C@H](C)N(C)C(=O)[C@H](CC2CCCCC2)NC(=O)CN(CCC)C(=O)[C@H]2CCCN2C1=O [LA11] ({CH2CO}-L[NMeA][Nva][dP][NPrGly][Cha][NMeA]L[NMeC]-OEt; thioether N-9) .
6.5

Try the molecule CCOC(=O)[C@@H]1CSCC(=O)N[C@@H](CC(C)C)C(=O)N(C)[C@@H](C)C(=O)N[C@@H](CC(C)C)C(=O)N2CCC[C@@H]2C(=O)N(CC)CC(=O)N[C@@H](CC(C)C)C(=O)N(C)[C@@H](C)C(=O)N[C@@H](CC(C)C)C(=O)N1C [LA06] ({CH2CO}-L[NMeA]L[dP][NEtG]L[NMeA]L[NMeC]-OEt; thioether N-9)
5.1

Okay, and CCCN1CC(=O)N[C@@H](CC(C)C)C(=O)N2CCC[C@@H]2C(=O)N(C)[C@@H](C)C(=O)N[C@@H](CC)C(=O)N(C)[C@@H](C)C(=O)N[C@@H](CC(C)C)C(=O)N(C)[C@H](C(=O)OCC)CSCC(=O)N[C@@H](CC(C)C)C1=O [LB04] ({CH2CO}-L[NPrGly]L[dP][NMeA][Abu][NMeA]L[NMeC]-OEt; thioether N-9) ?
35.8
